- assay-name: Evaluation of contrast of compositions at maximum dissolution amount encapsulated in a cell (C=Ky/Kz at λmax)
- condition-label: absorption peak wavelength of the composition in the cell
measured-attribute: λmax(nm)
Field format: number, assumed nm, no unit text.

Look up λmax(nm) of CCCCC(CC)C(=O)Oc1ccc(Sc2cccc3c2C(=O)c2cccc(Sc4ccc(OC(=O)C(CC)CCCC)cc4)c2C3=O)cc1 (centres unmarked) and report it.
462

Look up λmax(nm) of CC(CC(=O)Oc1ccc(Sc2cccc3c2C(=O)c2cccc(Sc4ccc(OC(=O)CC(C)CC(C)(C)C)cc4)c2C3=O)cc1)CC(C)(C)C (centres unmarked) and report it.
462

Look up λmax(nm) of "CC(C)(C)c1ccc(Sc2cccc3c2C(=O)c2cccc(Sc4ccc5ccccc5c4)c2C3=O)cc1" and report it.
462

Look up λmax(nm) of CCCCCC(C)CCC(=O)Oc1ccc(Sc2cccc3c2C(=O)c2cccc(Sc4ccc(OC(=O)CCC(C)CCCCC)cc4)c2C3=O)cc1 (centres unmarked) [Formula(E)] and report it.
460

Look up λmax(nm) of CCCCCCCCC(CCCCCC)C(=O)Oc1ccc(Sc2cccc3c2C(=O)c2cccc(Sc4ccc(OC(=O)C(CCCCCC)CCCCCCCC)cc4)c2C3=O)cc1 (centres unmarked) and report it.
460

---

- assay-name: Evaluation of solubility of compounds in liquid crystal material, photocurable compound, and photopolymerization initiator
- Type: physicochemical
- condition-label: room temperature, 0.5% steps, tested up to about 3.5% by mass
measured-attribute: Maximum dissolution amount
Provide the measurement as a number trailed by its unit.

Look up Maximum dissolution amount of "CC(C)(C)c1ccc(Sc2cccc3c2C(=O)c2cccc(Sc4ccc5ccccc5c4)c2C3=O)cc1" and report it.
0.5% by mass

Look up Maximum dissolution amount of CCCCCC(C)CCC(=O)Oc1ccc(Sc2cccc3c2C(=O)c2cccc(Sc4ccc(OC(=O)CCC(C)CCCCC)cc4)c2C3=O)cc1 (centres unmarked) [Formula(E)] and report it.
1.0% by mass

Look up Maximum dissolution amount of CCCCCCCCC(CCCCCC)C(=O)Oc1ccc(Sc2cccc3c2C(=O)c2cccc(Sc4ccc(OC(=O)C(CCCCCC)CCCCCCCC)cc4)c2C3=O)cc1 (centres unmarked) and report it.
3.5% by mass

Look up Maximum dissolution amount of CC(CC(=O)Oc1ccc(Sc2cccc3c2C(=O)c2cccc(Sc4ccc(OC(=O)CC(C)CC(C)(C)C)cc4)c2C3=O)cc1)CC(C)(C)C (centres unmarked) and report it.
1.0% by mass

Look up Maximum dissolution amount of CCCCC(CC)C(=O)Oc1ccc(Sc2cccc3c2C(=O)c2cccc(Sc4ccc(OC(=O)C(CC)CCCC)cc4)c2C3=O)cc1 (centres unmarked) and report it.
3.5% by mass

---

- assay-name: Evaluation of solubility of compounds in liquid crystal material (maximum dissolution amount, visual observation)
- Type: physicochemical
- condition-label: in liquid crystal material (cyanobiphenyl/terphenyl mixture), room temperature, 0.5% steps, tested up to about 4.5% by mass
I'd be grateful if you could share measured Maximum dissolution amount for these entries.
Field format: number, assumed % by mass, no unit text.

Look up Maximum dissolution amount of CCCCCC(C)CCC(=O)Oc1ccc(Sc2cccc3c2C(=O)c2cccc(Sc4ccc(OC(=O)CCC(C)CCCCC)cc4)c2C3=O)cc1 (centres unmarked) [Formula(E)] and report it.
2.0

Look up Maximum dissolution amount of CCCCC(CC)C(=O)Oc1ccc(Sc2cccc3c2C(=O)c2cccc(Sc4ccc(OC(=O)C(CC)CCCC)cc4)c2C3=O)cc1 (centres unmarked) and report it.
3.5

Look up Maximum dissolution amount of CCCCCCCCC(CCCCCC)C(=O)Oc1ccc(Sc2cccc3c2C(=O)c2cccc(Sc4ccc(OC(=O)C(CCCCCC)CCCCCCCC)cc4)c2C3=O)cc1 (centres unmarked) and report it.
4.5

Look up Maximum dissolution amount of "CC(C)(C)c1ccc(Sc2cccc3c2C(=O)c2cccc(Sc4ccc5ccccc5c4)c2C3=O)cc1" and report it.
1.0

Look up Maximum dissolution amount of CC(CC(=O)Oc1ccc(Sc2cccc3c2C(=O)c2cccc(Sc4ccc(OC(=O)CC(C)CC(C)(C)C)cc4)c2C3=O)cc1)CC(C)(C)C (centres unmarked) and report it.
2.0
